- experimentalSystem: T1, recombinant human IGF-II (Insulin-like Growth Factor II) (human, UniProt P01344 25-91, biotinylated (Biotinyl-IGF-II, GroPep) where immobilised in SPR, site not stated; not biotinylated in ITC and as SPR analyte)
- T1 construct: also called IGF2; IGF-2
- T1 sequence (P01344 25-91 limits assumed): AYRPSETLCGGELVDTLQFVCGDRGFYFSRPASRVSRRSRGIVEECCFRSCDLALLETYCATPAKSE
- assayOverview: SPR, IGF-II immobilised, kinetic fit
testReadout: pKd
Answer as the number alone; pKd is minus log10 of concentration in mol/L.

The recorded pKd for entry IGF2R domain 11 with glutamine at position 1544 (E1544Q) (receptor) NEHDDCQVTNPSTGHLFDLSSLSGRAGFTAAYSQKGLVYMSICGENENCPPGVGACFGQTRISVGKANKRLRYVDQVLQLVYKDGSPCPSKSGLSYKSVISFVCRPEAGPTNRPMLISLDKQTCTLFFSWHTPLACEQATHHHHHH equals 7.48

Field pKd (entry IGF2R domain 11 with serine at position 1544 (E1544S) (receptor) NEHDDCQVTNPSTGHLFDLSSLSGRAGFTAAYSSKGLVYMSICGENENCPPGVGACFGQTRISVGKANKRLRYVDQVLQLVYKDGSPCPSKSGLSYKSVISFVCRPEAGPTNRPMLISLDKQTCTLFFSWHTPLACEQATHHHHHH ) reads 7.63

Quick note, pKd for IGF2R domain 11 with tryptophan at position 1544 (E1544W) (receptor) NEHDDCQVTNPSTGHLFDLSSLSGRAGFTAAYSWKGLVYMSICGENENCPPGVGACFGQTRISVGKANKRLRYVDQVLQLVYKDGSPCPSKSGLSYKSVISFVCRPEAGPTNRPMLISLDKQTCTLFFSWHTPLACEQATHHHHHH landed at 7.20

Measured pKd of IGF2R domain 11 E1544K (amino acids 1511-1650, C-terminal His6 tag, from Pichia pastoris) (receptor, also called enhanced mutant) NEHDDCQVTNPSTGHLFDLSSLSGRAGFTAAYSKKGLVYMSICGENENCPPGVGACFGQTRISVGKANKRLRYVDQVLQLVYKDGSPCPSKSGLSYKSVISFVCRPEAGPTNRPMLISLDKQTCTLFFSWHTPLACEQATHHHHHH : 7.69

Measured values drawn from patent US20090304651A1 for this set.
